Test system: PPARg:RXRa IVT, anti-PPARg (NR concentration 270 nM, RXRa partner concentration 90 nM)
experiment.description: PBM binding z-score (relative to random genomic background probes); higher = stronger binding; sequences stand for … in GC…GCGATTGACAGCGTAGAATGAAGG
Listed next: entries and their corresponding PBM binding z-score.
assay.endpoint: PBM binding z-score

sequence.chain | tested.on | reported.measurement
CATACAGGGTCAGCTAGGCCAGAGGAGGGACGGC | PPARg:RXRa IVT, anti-PPARg (NR concentration 270 nM, RXRa partner concentration 90 nM) | 2.07
AGTCGAAGTTCATCTAGGTAACGTAAGATATGCT | PPARg:RXRa IVT, anti-PPARg (NR concentration 270 nM, RXRa partner concentration 90 nM) | 2.06
ATCGAAAGGTCGACGAGGTGAATATACACCGTTT | PPARg:RXRa IVT, anti-PPARg (NR concentration 270 nM, RXRa partner concentration 90 nM) | 2.07
CCTACTGGGCCAGTCAGAGGTCATTGATCATATG | PPARg:RXRa IVT, anti-PPARg (NR concentration 270 nM, RXRa partner concentration 90 nM) | 3.52
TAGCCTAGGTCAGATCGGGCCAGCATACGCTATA | PPARg:RXRa IVT, anti-PPARg (NR concentration 270 nM, RXRa partner concentration 90 nM) | 1.4
TAGCCTAGGTGATTCAGGGGCCAGTATAGAAAGC | PPARg:RXRa IVT, anti-PPARg (NR concentration 270 nM, RXRa partner concentration 90 nM) | 0.666

====

System: PPARa:RXRa (NR concentration 270 nM, RXRa partner concentration 90 nM)
experiment.description: PBM binding z-score (relative to random genomic background probes); higher = stronger binding; sequences stand for … in GC…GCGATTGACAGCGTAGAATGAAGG
Quick reference for PBM binding z-score among some sequences

sequence.chain | PBM binding z-score
ATCTCTAGGTAACCAAGATCAGTGAATGCCGAAC | 0.613
CCGCCTGGGGCATAAGGTTACCATAAGCCAGCCC | 1.3
GCTATTAGTTTAAAGGGCAACCGAATGATTCTCG | 2.44
AATACAGGGTCAGCGTAGGCCAGAGTACGCACAG | 4.74
CCTCGGAGGGCAGAAGGTCAGAGCTGTCCGCTTT | 2.48
TCATATAGGTAATACAGGTGACAGTCGGCATCTA | 1.77

====

System: PPARg:RXRa 270nM:90nM, anti-RXR (NR concentration 270 nM, RXRa partner concentration 90 nM)
experiment.description: PBM binding z-score (relative to random genomic background probes); higher = stronger binding; sequences stand for … in GC…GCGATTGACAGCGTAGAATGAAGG
Label y when PBM binding z-score is at or above 0.7; anything below gets n.

sequence.chain | label
GTACCAAGGTGAATAGGTCGTTGACGAGTAGGCG | y
CCGAGTACGTTATGGGGCATTCAGGCAACGGTGA | n
TCTTGTAGATCAACAGGAGTTTAAGAAAGATCGA | y
AGAATGAGCTTAAGATCAGGGAAACAGAATACAT | n
CGTCCAAGGTCAGAGCGGTCAGTGAATGCCGAGT | y

====

Tested on: PPARg:RXRa DBDmut IVT, anti-RXR (DBD mutation: RXRa K156A/R161A, NR concentration 270 nM, RXRa partner concentration 90 nM)
experiment.description: PBM binding z-score (relative to random genomic background probes); higher = stronger binding; sequences stand for … in GC…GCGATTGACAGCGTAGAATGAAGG
Label n if PBM binding z-score falls below 2; label y in every other case.

sequence.chain | label
AGAGTGAGGTTATACGTAGATCAGGGAAGAAAGT | n
GCTTACGGGTCAAAGGTTCTAGCATGAATAGAAT | y
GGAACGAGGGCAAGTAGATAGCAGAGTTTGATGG | y
ATCGAATGGTCGACGAGGTGAGTATACACCGTTT | n
GCGACTCGGGCAAAGCAGGTTACCATAAGGTTGG | n
TCTTGTAGATCAGCAGCTTAAGAAAGCTGGCCAA | n
TAGCCAAGGTCATGCGGGCCAGTATAGTGTCGGC | n
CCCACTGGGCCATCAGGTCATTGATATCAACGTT | y
CTCGAAAGGTCGGTTGACGTGAGTATACGGATAA | n
AGAATGTGGTTACCAAAGATCAGGGAAACGCTTG | n
TCTTGTTGATCAAGCAGGTTAAGAAAGCCTGAGT | n
CCTACTGGCCCATTCAGAGGTCATTGATCATATG | n
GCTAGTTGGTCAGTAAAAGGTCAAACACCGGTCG | n
CGTCAATGTTCAACTAAGGTAACGTAAAGCACGC | n
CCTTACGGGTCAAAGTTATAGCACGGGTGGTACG | n
GCGACTGGGGCATCGGCAGGTTACCATAACTTAA | y
ACTATTAGTTGAGACCAGGGCAACCGATAGGTTG | n
CAAACTAGGTCACAGAGGTAAAAGTCCGTGCGTA | y
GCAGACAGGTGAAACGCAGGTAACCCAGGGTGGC | n
ATCTCTAGGCAAGACTCAGTTCAGTGAAGAACGC | n
TCGAGTAGGTTACCAATGGGGCCTTCAGCTTTCT | y
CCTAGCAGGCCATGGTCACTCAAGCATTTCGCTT | n
TAGCCTAGGTCATTCAGGGGCCATTATAGAAAGC | n
ATCGAAAGGTCGAAGGTGAGAATACCCACCCGAA | n
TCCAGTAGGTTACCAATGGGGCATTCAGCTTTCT | y
CGTCCAAGGTCATAGGAGGTCTGTGAAGACAGAT | y

====

Test system: PPARa:RXRa (NR concentration 270 nM, RXRa partner concentration 90 nM)
experiment.description: PBM binding z-score (relative to random genomic background probes); higher = stronger binding; sequences stand for … in GC…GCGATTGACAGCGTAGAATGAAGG
assay.endpoint: PBM binding z-score

sequence.chain | reported.measurement
CCGAGTAGGTTATGGGGCATTCACGCAACGGTGA | 2.27
AATCCAGGGTCACTAGGCCAGAGTAGGTACGAAT | 5.78
GGAACGAGGGCATTCGCGTTGATAGCATGGCGAT | 1.5
ATACCAAGGTGATAGTGAGGTCGTTGATACTAAC | 1.81
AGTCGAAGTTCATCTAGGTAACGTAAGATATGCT | 2.8
ACTATTAGTGGACTTAGGGCAACCGATACGACGC | -0.455
ATCTCTAGCTAAAGTTCAGTGAAAGATCGATAGA | 1.74
ATCGCTAGGTAAAGTTCAGTGAAAGATCGATAGA | 1.81
AGAACGAGGGCAATGTGTTGATAGCACGGGTGGC | 1.47
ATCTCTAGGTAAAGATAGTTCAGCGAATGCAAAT | 0.777
CCTAGCAGGCCAGGGACACTCAAGCATTTCGCTT | -0.453
TAGCCTAGGTCTGATCGGGCCAGTATACGCTATA | -0.144
TCTTGTAGATCAAAGGTTAAGCAAGCCGAAGCCT | 5.08
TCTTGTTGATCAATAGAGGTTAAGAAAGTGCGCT | 2.02
CCGAGTAGGTTATGGGGCCTTCAGGCAACGGTGA | 1.33
ACAGACAGGTGATGAAGGAAACTCAGGCTATCAT | 0.0161
GGAACGCGGGCAAGTTGATAGCAGAGTTTGATGG | -0.903
TCATATAGGTAAACAGGTGAAAGTTCGTAAGTTA | 4.15
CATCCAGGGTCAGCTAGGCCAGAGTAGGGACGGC | 4.34
AGAATGAGGTTATACGTAGATCAGGAAAGAAAGT | 3.08
TCTTGTAGATCAATAGAGGTTACGAAAGTGCGCT | 2.12
AGAATGAGGTTATTAAGATCATGGAATTGCGGTC | 2.75
ACTTACGGGTCAACGAGGTGATAGCACGCGTATA | 5.53
CCAGACAGGTGAAAAGTAACTCAGTCTGGTACGC | 1.01
TCTTGTAGATCAAAGGTTAAGAATGCCGAAGCCT | 4.68
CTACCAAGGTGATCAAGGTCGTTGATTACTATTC | 1.65
TTACCAAGGTGAAGTTCGTTGATCCCTCTGTAGA | 1.98
ACAGACAGGTGAGTGAAGGTTACTCAGCTGGACG | 0.764
GCGCCTGGGGCAAAGCAGGTTACCATAAGGTTGG | 0.474
ATCTCTAGGTAAAGATCAGTGAAAGATCGATAGA | 0.624
TGTCAAAGTTCAAAGGTAACGTCAGTATCCACAC | 5.79
CGTCCAAAGTCAATGCTAGGTCAGTGAAAGCATT | 0.696
ACTATTAGTTGACTTAGGGCCACCGATACGACGC | 0.121
AGTCAAAGTTCAGGACCAGGTAACGTAAAGCACG | 3.32
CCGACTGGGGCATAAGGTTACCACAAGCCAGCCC | 2.07
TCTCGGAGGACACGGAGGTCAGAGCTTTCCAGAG | 2.22
ATATGTAGGTTAGCTGGGGTCGTTCAGACTAGGC | 3.82
TCTCGGGGGACACGAAGGTCAGAGCTTTCCAGAG | 3.77
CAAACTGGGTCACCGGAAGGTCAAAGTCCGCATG | 5.73
CCTTACGGGTCACTCCAGGTTATAGCTTCGGAGT | 4.05
CATACAGGGTCAGCTAGGCAAGAGTAGGGACGGC | 4.34
CCAGACAGGTGAAAGGTAACTCAGTCTGGTACGC | 3.53
CGCCCAAGGTCAGAGAGGTCAGTGAATGCCGAGT | 4.86
CTCGAAAGGTCGGCTGAGGTGAGTATACGGATAA | 3.62
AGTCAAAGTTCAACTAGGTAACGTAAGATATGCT | 5.32
ATACCAAGGTGATCGTGAGGACGTTGATACTAAC | -0.0562
GGAACGAGGGCATTCGAGTTGTTAGCATGGCGAT | 1.18
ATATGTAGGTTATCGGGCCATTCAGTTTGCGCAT | 3.22
TCTATTAGTTGAAGGGCAACTGACGAGTCCGTTT | 1.09
CGTCCAAGGTCAGCAGCTCAGTGAAAGCGACGTG | 4
GGAACGAGGGCATTCGAGTTGATATCATGGCGAT | 1.64
